# tested_system: unphosphorylated-BTK kinase domain (UP-BTK), GST-tagged human BTK (389-659aa) (Homo sapiens (Human))
# Sequence (Q06187 389-659): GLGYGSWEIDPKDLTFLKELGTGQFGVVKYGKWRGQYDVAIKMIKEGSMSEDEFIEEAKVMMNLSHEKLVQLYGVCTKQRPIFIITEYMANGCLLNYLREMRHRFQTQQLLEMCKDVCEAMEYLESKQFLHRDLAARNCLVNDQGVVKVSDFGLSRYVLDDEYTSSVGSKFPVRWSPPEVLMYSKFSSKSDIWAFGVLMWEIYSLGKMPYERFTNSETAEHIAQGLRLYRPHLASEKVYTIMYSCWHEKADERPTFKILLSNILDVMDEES
# assay_overview: BTK Kinase Lanthascreen Binding Assay
# condition_details: read-out: BTK_I_binding pIC50 (converted)
measurement_type: IC50

molecule: N[C@H]1CCC[C@H]1NC(=O)c1sc2nccc3c2c1NC(=O)N3c1cc(-c2ccccc2)cnn1
reading: > 1 µM
//
molecule: N[C@@H]1CCCC[C@H]1NC(=O)c1sc2nccc3c2c1NC(=O)N3c1ccc(Oc2ccccc2)nc1
reading: > 1 µM
//
molecule: CC(C)c1cc(N2C(=O)Nc3c(C(=O)N[C@@H]4CCC[C@@H]4N)sc4nccc2c34)ccn1
reading: > 1 µM
//
molecule: CCC(=O)N[C@H]1CCC[C@H](NC(=O)c2sc3nccc4c3c2NC(=O)N4c2cnc(Oc3ccccc3)cc2C)C1 (single isomer, unassigned)
reading: > 1 µM
//
molecule: C=CC(=O)NC1CCC(NC(=O)c2sc3nccc4c3c2NC(=O)N4c2ccc(Oc3ccccc3)cn2)C1 (racemic)
reading: 0.0141 µM

Dear colleague, please send me the reported IC50 for CC(=O)N[C@@H]1CCC[C@H](NC(=O)c2sc3nccc4c3c2NC(=O)N4c2ccc(Oc3ccccc3)nc2C)C1 (single isomer, unassigned) when you can.
> 1 µM

For the molecule C=CC(=O)N[C@@H]1CC[C@@H](NC(=O)c2sc3nccc4c3c2NC(=O)N4c2ccc(Oc3ccccc3)nc2)C1 (racemic) , give its measured IC50 value.
0.0776 µM
